Catalogue of refractive index values
protocol-notes: refractive index (Na D-line) (dimensionless)
settings: 293.15 K; 101.33 kPa; Liquid; Standard Abbe refractometry
± gives the expanded uncertainty stated by the source.

Sample answers from the record:
[[record]]
compound = "CO [methanol]"
measured_attribute = "refractive index"
observed_measurement = "1.3291 ± 0.0005"

[[record]]
compound = "CCCCO [butan-1-ol]"
measured_attribute = "refractive index"
observed_measurement = "1.3997 ± 0.0005"

[[record]]
compound = "CCCCCO [pentan-1-ol]"
measured_attribute = "refractive index"
observed_measurement = "1.4092 ± 0.0005"


Ask | Recorded refractive index for CC(C)O [propan-2-ol] , please?
Reply | 1.378 ± 0.0005

Ask | Follow-up item: CCCO [propan-1-ol]
Reply | 1.3853 ± 0.0005

Ask | What do we get for CCCCCCO [hexan-1-ol] ?
Reply | 1.4175 ± 0.0005

Ask | How about CCC(C)O (configuration not stated) [butan-2-ol] ?
Reply | 1.3955 ± 0.0005
